Test system: SK-MEL-5 melanoma
Assay: NCI tumour cell line growth inhibition, 48 h
experimental.readout: TGI (µM)

compound	experimental.readout	censoring.sign	experimental.value
O=C(Oc1ccccn1)c1cc2cc(CCl)ccc2oc1=O	TGI	>	100
Cc1[nH]c2ccccc2c1C(=O)/C=C/c1ccccc1O	TGI	>	100
CCOC(=O)Nc1ccc(-c2nc(-c3cccc(OCCN4CCOCC4)c3)c(-c3ccnc(Br)c3)[nH]2)cc1	TGI	=	3.15
COc1cc(C2c3cc4c(cc3OC3(OC)COC(=O)C23)OCO4)cc(OC)c1OC(C)=O (stereo not given)	TGI	=	34.6
N#C/C1=C(\N)CCSSSC1	TGI	=	60.9
COc1ccc2[nH]cc(C3(c4c[nH]c5ccc(OC)cc45)C(=O)Nc4ccc(F)cc43)c2c1	TGI	=	4.77
CS(=O)(=O)CCNCc1nc(-c2ccc3ncnc(Nc4ccc(OCc5cccc(C(F)(F)F)c5)cc4)c3c2)cs1	TGI	>	25
NC(=O)C(C(N)=O)=C(O)C(=O)/C=C(\O)c1ccccc1	TGI	>	100
Cc1[nH]nc(C(F)(F)F)c1N=NN1CCOCC1	TGI	=	12.8
Clc1ccc(C2C3COc4ccccc4C3=NN2c2ccccc2)cc1 (stereo not given)	TGI	>	100

###

Test system: HS 578T breast
Assay: NCI tumour cell line growth inhibition, 48 h

molecule	TGI
COc1cc2c(C)cc(O)cc2c2cc(O)c(C)cc12	53.8 µM
CC(CO)(CO)N1C(=O)C2C3C=CC(C3)C2C1=O (configuration not stated)	> 100 µM
Cn1c(=O)c2c(nc(Cc3ccccc3)n2CC(=O)O)n(C)c1=O	> 100 µM
O=C1/C(=C/c2cccc(Cl)c2Cl)N=C(c2ccccc2)N1C1CC1	39.5 µM
O=C(/C=C/c1cc2ccccc2o1)N1CCN(c2ccccn2)CC1	> 100 µM
COC(CNC(=O)C(C)NC(=O)/C=C/c1ccccc1)OC (configuration not stated)	> 100 µM
CC(=O)c1c(C)n([O-])c2cc(Cl)c(Cl)cc2[n+]1=O	74 µM
COc1ccc(C(=O)/C=C/c2cc(-c3cc(OC)c(OC)c(OC)c3)n[nH]2)cc1OC	8.2 µM
Cn1c(=O)c(-c2ccccc2)c(N=[N+]=[N-])c2ccccc21	> 100 µM
C[C@H](CCC(=O)O)[C@H]1CC[C@H]2[C@@H]3CC[C@@H]4C[C@H](O)CC[C@]4(C)[C@H]3C[C@H](O)[C@]12C	> 100 µM
N#Cc1c(N)n(-c2cccc(C(=O)O)c2)c(=O)c2cc([N+](=O)[O-])ccc12	> 100 µM
O=C(CC1(O)C(=O)N(Cc2ccccc2)c2ccc(F)cc21)c1ccc(C(=O)NCC2CCC3(CC2)OOC2(CCCCC2)OO3)cc1 (configuration not stated)	6.08 µM
O=C(Nc1nc(C23CC4CC(CC(C4)C2)C3)cs1)c1cc2ccc(O)cc2oc1=O	37.8 µM
COc1ccc(-[n+]2nc(S(=O)(=O)O)c(/C=C/c3ccc(N(C)C)cc3)cc2C#N)cc1	> 100 µM
Cc1cc2oc(=N)c(C#N)c(C)c2cc1C	> 100 µM
O=C1OCC2=C1C(c1cccc(Br)c1)c1cc3c(cc1N2CCO)CCC3 (configuration not stated)	11.4 µM
Clc1ccc(C2C3COc4ccccc4C3=NN2c2ccccc2)cc1 (configuration not stated)	> 100 µM
O=c1cc(-c2cccc3ccccc23)[nH]c2ncccc12	> 100 µM
O=C(N[C@@H](c1ccc(Cl)c(Cl)c1)C1CNC1)c1ccc2cnccc2c1	0.483 µM
COC(=O)/C=C(\C)CC(O)/C=C(\C)CCC=C(C)C (configuration not stated)	> 100 µM
CC#CCOC(=O)c1ccccc1OC(C)=O	> 100 µM
COc1cc2c3c(n(C)c(=O)c2cc1OC)-c1cc2c(cc1/C3=C\CN)OCO2	> 100 µM

Values from PubChem BioAssay (NCI)
